Ref: paper PMC7577125

test: in vitro; conditions: mouse, plasma
ENDPOINT_LABEL: fraction unbound at 6 h

Problem: What value of measured fraction unbound at 6 h is listed for O=C(NCc1cnc(C(F)(F)F)s1)c1ccc2c(c1)NC(=O)c1ccccc1S2(=O)=O ?
Solution: 0.03 to 0.034

###

Molecular target: CYP2C8 (Homo sapiens)
Sequence (P10632 1-490): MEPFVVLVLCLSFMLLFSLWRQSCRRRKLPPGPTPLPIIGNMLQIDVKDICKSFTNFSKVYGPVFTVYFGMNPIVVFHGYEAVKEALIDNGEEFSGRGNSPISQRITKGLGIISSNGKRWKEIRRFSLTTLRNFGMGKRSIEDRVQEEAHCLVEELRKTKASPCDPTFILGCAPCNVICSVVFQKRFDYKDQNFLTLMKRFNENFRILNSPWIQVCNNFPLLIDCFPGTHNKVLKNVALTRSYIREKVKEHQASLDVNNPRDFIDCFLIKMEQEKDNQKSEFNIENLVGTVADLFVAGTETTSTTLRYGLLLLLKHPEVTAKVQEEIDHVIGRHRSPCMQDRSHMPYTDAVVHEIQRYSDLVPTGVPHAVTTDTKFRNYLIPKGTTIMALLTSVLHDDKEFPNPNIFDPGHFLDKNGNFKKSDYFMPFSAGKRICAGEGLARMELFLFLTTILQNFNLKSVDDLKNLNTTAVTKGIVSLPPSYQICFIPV
ENDPOINT_LABEL: pIC50
Answer as the number alone; pIC50 is minus log10 of concentration in mol/L.

Problem: What value of measured pIC50 is listed for O=C(NCc1cnc(C(F)(F)F)s1)c1ccc2c(c1)NC(=O)c1ccccc1S2(=O)=O ?
Solution: 4.57
